Taken from patent EP4603105A1.

Target: GDP-bound KRAS wild-type protein (Homo sapiens, UniProt P01116)
Sequence (P01116 1-188 isoform P01116-2): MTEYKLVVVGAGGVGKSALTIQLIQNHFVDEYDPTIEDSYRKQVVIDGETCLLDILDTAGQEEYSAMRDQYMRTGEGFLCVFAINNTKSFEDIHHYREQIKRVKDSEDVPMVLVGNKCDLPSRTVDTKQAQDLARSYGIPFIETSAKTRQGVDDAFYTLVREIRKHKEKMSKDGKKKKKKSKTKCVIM
Test: Binding to KRAS by surface plasmon resonance (SPR), dissociation constant KD
Conditions: Single Cycle Kinetics, 1:1 binding model
pKd: −log10 of the molar value.
Please mark 1.0 if the recorded pKd is equal to or greater than 10, and 0.0 if it falls below.

# Record smiles, Assigned label
data = [
    ("CCO[C@@H]1C[C@H]2C(=O)NC3(CCCC3)C(=O)N(C)[C@@H](C3CCCC3)C(=O)N(C)[C@H](C(=O)N(C)C)CC(=O)N(C)[C@@H](CC)C(=O)N[C@@H]([C@@H](C)CC)C(=O)N(C)CC(=O)N(C)[C@H]3C[C@@H](C)[C@@H](C)CN(C3=O)[C@@H](Cc3ccc(C(F)(F)F)cc3)C(=O)N(C)CC(=O)N[C@@H](CCc3ccc(C(F)(F)F)c(Cl)c3)C(=O)N2C1", 1.0),
    ("CC[C@H](C)[C@@H]1NC(=O)[C@H](CC(C)C)N(C)C(=O)C[C@@H](C(=O)N2CCOCC2)N(C)C(=O)[C@H](C2CCCC2)N(C)C(=O)C2(CCCC2)NC(=O)[C@@H]2CCCN2C(=O)[C@H](CCc2ccc(C(F)(F)F)c(Cl)c2)NC(=O)CN(C)C(=O)[C@H](Cc2ccccc2)N2CCCCC[C@@H](C2=O)N(C)C(=O)CN(C)C1=O", 0.0),
]

Please examine the following record next.
Exercise: Quick check: does CC[C@H](C)[C@@H]1NC(=O)[C@H](CC(C)C)N(C)C(=O)C[C@@H](C(=O)N2CCOCC2)N(C)C(=O)[C@H](C2CCCC2)N(C)C(=O)C2(CCCC2)NC(=O)[C@@H]2CCCN2C(=O)[C@H](CCc2ccc(C(F)(F)F)c(Cl)c2)NC(=O)CN(C)C(=O)[C@H](Cc2ccc(F)cc2)N2C/C=C\CC[C@@H](C2=O)N(C)C(=O)CN(C)C1=O have pKd greater than or equal to 10?
Solution: 0.0

----------
Target: GDP-bound KRAS wild-type protein (Homo sapiens)
Assay: Binding to KRAS by surface plasmon resonance (SPR), dissociation constant KD
Settings: Single Cycle Kinetics
Result type: pKd
Give bare numbers, as −log10 of the molar value.

Report pKd for each item below.
1. C=C(C)C[C@H]1C(=O)N(C)[C@H](C(=O)N(C)C)CC(=O)N(C)[C@@H](CC(C)C)C(=O)N[C@@H]([C@@H](C)CC)C(=O)N2CCC[C@H]2C(=O)N(C)[C@H]2C/C=C\CCN(C2=O)[C@@H](Cc2ccc(C)cc2)C(=O)N(C)CC(=O)N[C@@H](CCc2cc(F)c(C(F)(F)F)c(F)c2)C(=O)N2C[C@H](OCC)C[C@H]2C(=O)N(C)C2(CCC2)C(=O)N1C
2. CCCC[C@H]1C(=O)N[C@@H]([C@@H](C)CC)C(=O)N2CCC[C@H]2C(=O)N(C)[C@H]2C/C=C\CCN(C2=O)[C@@H](Cc2ccc(C)cc2)C(=O)N(C)CC(=O)N[C@@H](CCc2ccc(C(F)(F)F)c(OC)c2)C(=O)N2C[C@H](OCC)C[C@H]2C(=O)OC2(CCC2)C(=O)N(C)[C@@H](C2CCCC2)C(=O)N(C)[C@H](C(=O)N(C)C)CC(=O)N1C

Solution:
8.38
9.13

----------
System: human lung cancer strain NCI-H441
Assay type: cell-based
Threshold check on IC50: strictly below 0.02 µM is MET; on or above 0.02 µM is NOT MET.

# Compound, Assigned label
rows = [
    ("CCO[C@@H]1C[C@H]2C(=O)NC3(CC(C)(C)C3)C(=O)N(C)[C@@H](C(CC)CC)C(=O)N(C)[C@H](C(=O)N(C)C)CC(=O)N(C)[C@@H](CC3CC3)C(=O)N[C@@H]([C@@H](C)CC)C(=O)N(C)CC(=O)N(C)[C@H]3C/C=C\\CCN(C3=O)[C@@H](Cc3ccc(C)cc3)C(=O)N(C)CC(=O)N[C@@H](CCc3cc(F)c(C(F)(F)F)c(F)c3)C(=O)N2C1 [PP2137]", "MET"),
]

Please examine the following record next.
Exercise: Find out if reported IC50 for CCCC[C@H]1C(=O)N[C@@H]([C@@H](C)CC)C(=O)N(C)CC(=O)N(C)[C@H]2C/C=C\CCN(C2=O)[C@@H](Cc2ccc(C(F)(F)F)cc2)C(=O)N(C)CC(=O)N[C@@H](CCc2ccc(C(F)(F)F)c(OC)c2)C(=O)N2C[C@H](OCC)C[C@H]2C(=O)NC2(CCC2)C(=O)N(C)[C@@H](C2CCCC2)C(=O)N(C)[C@H](C(=O)N(C)CC)CC(=O)N1C [PP2840] is less than 0.02 µM
Solution: MET

----------
Assignment: determine reported pIC50 for the given compounds.
Test system: human lung cancer strain NCI-H441
Type: cell-based
Give bare numbers, as −log10 of the molar value.

# Record smiles, Subject of test, Readout value
measured = [
    ("CCO[C@@H]1C[C@H]2C(=O)NC3(CCC3)C(=O)N(C)[C@@H](C3CCCC3)C(=O)N(C)[C@H](C(=O)N(C)C)CC(=O)N(C)[C@@H](CC(C)C)C(=O)N[C@@H]([C@@H](C)CC)C(=O)N(C)CC(=O)N(C)[C@H]3CCCCN(C3=O)[C@@H](Cc3ccc(C(F)(F)F)cc3)C(=O)N(C)CC(=O)N[C@@H](CCc3cc(F)c(C(F)(F)F)c(F)c3)C(=O)N2C1", "human lung cancer strain NCI-H441", 8.74),
]

API: the following record is the query input.
Exercise: Look at this compound and give its reported pIC50. CCC[C@H]1C(=O)N[C@@H]([C@@H](C)CC)C(=O)N(C)CC(=O)N(C)[C@H]2C/C=C\CCN(C2=O)[C@@H](Cc2ccc(C(F)(F)F)cc2)C(=O)N(C)CC(=O)N[C@@H](CCc2cc(F)c(C(F)(F)F)c(F)c2)C(=O)N2C[C@H](OCC)C[C@H]2C(=O)NC2(CC(F)(F)C2)C(=O)N(C)[C@@H](C2CCCC2)C(=O)N(C)[C@H](C(=O)N(C)CCC)CC(=O)N1C
Solution: 8.44

----------
System: human lung cancer strain NCI-H441
Type: cell-based
Where a SMILES comes first, the peptide text is derived from it. Bridges are numbered along the chain shown (N, C = ends). [ ]: non-standard residue; d: D form. The star is where a group is joined. hPhe(3,5-F2-4-CF3) = N[C@@H](CCc1cc(F)c(C(F)(F)F)c(F)c1)C(=O)O; hPhe(3-Cl-4-CF3) = N[C@@H](CCc1ccc(C(F)(F)F)c(Cl)c1)C(=O)O; NPrPhe(4-CF3) = CCCN[C@@H](Cc1ccc(C(F)(F)F)cc1)C(=O)O; NMeGly(cPent) = CN[C@H](C(=O)O)C1CCCC1; NMeD = CN[C@@H](CC(=O)O)C(=O)O; NMeL = CN[C@@H](CC(C)C)C(=O)O; αMeS = C[C@](N)(CO)C(=O)O; Morpholide = C1CN(*)CCO1; Aze = O=C(O)[C@@H]1CCN1; Ac4c = NC1(C(=O)O)CCC1; Sar = CNCC(=O)O; Allyl = C=CC*
Result type: IC50 (nM)
Answers are plain numbers, in nM.

# Molecule, IC50, nM
rows = [
    ("C=CCOC[C@]1(C)NC(=O)[C@@H]2CCCN2C(=O)[C@H](CCc2cc(F)c(C(F)(F)F)c(F)c2)NC(=O)CN(C)C(=O)[C@H](Cc2ccc(C(F)(F)F)cc2)N(CCC)C(=O)CN(C)C(=O)[C@@H]2CCN2C(=O)[C@H]([C@@H](C)CC)NC(=O)[C@H](CC(C)C)N(C)C(=O)C[C@@H](C(=O)N2CCOCC2)N(C)C(=O)[C@H](C2CCCC2)N(C)C1=O [PP0780] ([NMeL]I[Aze][Sar][NPrPhe(4-CF3)][Sar][hPhe(3,5-F2-4-CF3)]P[αMeS](Allyl)[NMeGly(cPent)][NMeD]-Morpholide; lactam N-11)", 527),
    ("CCO[C@@H]1C[C@H]2C(=O)NC3(CCC3)C(=O)N(C)[C@@H](C3CCCC3)C(=O)N(C)[C@H](C(=O)N3CCOCC3)CC(=O)N(C)[C@@H](Cc3ccc(F)c(F)c3)C(=O)N[C@@H]([C@@H](C)CC)C(=O)N(C)CC(=O)N(C)[C@H]3CCCCCN(C3=O)[C@@H](Cc3ccc(C(F)(F)F)cc3)C(=O)N(C)CC(=O)N[C@@H](CCc3cc(F)c(C(F)(F)F)c(F)c3)C(=O)N2C1", 182),
    ("CCO[C@@H]1C[C@H]2C(=O)NC3(CCC3)C(=O)N(C)[C@@H](C3CCCC3)C(=O)N(C)[C@H](C(=O)N3CCOCC3)CC(=O)N(C)[C@@H](CC(C)C)C(=O)N[C@@H]([C@@H](C)CC)C(=O)N(C)CC(=O)N(C)[C@H]3CCCCCN(C3=O)[C@@H](Cc3nccs3)C(=O)N(C)CC(=O)N[C@@H](CCc3cc(F)c(C(F)(F)F)c(F)c3)C(=O)N2C1", 445),
    ("CCCN1C(=O)CN(C)C(=O)CNC(=O)[C@H]([C@@H](C)CC)NC(=O)[C@H](CC(C)C)N(C)C(=O)C[C@@H](C(=O)N2CCOCC2)N(C)C(=O)[C@H](C2CCCC2)N(C)C(=O)C2(CCC2)NC(=O)[C@@H]2CCCN2C(=O)[C@H](CCc2ccc(C(F)(F)F)c(Cl)c2)NC(=O)CN(C)C(=O)[C@@H]1Cc1ccc(C(F)(F)F)cc1 [PP0393] ([NMeL]IG[Sar][NPrPhe(4-CF3)][Sar][hPhe(3-Cl-4-CF3)]P[Ac4c][NMeGly(cPent)][NMeD]-Morpholide; lactam N-11)", 2.7),
]

Exercise: Record CCO[C@@H]1C[C@H]2C(=O)NC3(CC(F)(F)C3)C(=O)N(C)[C@@H](C3CCCC3)C(=O)N(C)C(C3CCCCC3)CC(=O)N(C)[C@@H](COC)C(=O)N[C@@H]([C@@H](C)CC)C(=O)N(C)CC(=O)N(C)[C@H]3C/C=C\CCN(C3=O)[C@@H](Cc3ccc(C(F)(F)F)cc3)C(=O)N(C)CC(=O)N[C@@H](CCc3cc(F)c(C(F)(F)F)c(F)c3)C(=O)N2C1 (some centres unmarked) : what is its IC50 with human lung cancer strain NCI-H441?
Solution: 85.5
